experimental.system: pooled human IgG (human IgG1,2,3 and 4)
Task for the reader: assign each of the following proteins its reported Enzyme Activity Endpoint Assay (purified): Fab′2.
Note: state the figure and append the unit.

For PRT-515 (protein) MITSVWTKGVTPPTDFIKGEDVFHAPYKAGQGWYDITKAFDGGDDLLCGAATAGNMLHWWFDQNKEEIEAYLKKHPEKQKIMFGDQELLDVRKVINTKDSQTNSALFNYFKDKAFPNLSARRLGVMPDLVLDMFINGYYLNVYKTQTTDVNRQEQTKDRRGGIFDAVFGRGDQTKLLTERHDLKNKTLNEISQLIKQELTEGKALGLSHTYANVRINHVINLWGADFDAEGNLEAIYVTDSDSNASIGMKKYFVGVNSAGKVAISAKEIKEDNIGAQVLGLFTLSTGQKIWNKTNLEHHHHHH , what is its reported Enzyme Activity Endpoint Assay (purified): Fab′2? 0 ng/µL

Give the measured Enzyme Activity Endpoint Assay (purified): Fab′2 of PRT-338 (protein) MTITSVWTKGVTPPTPEDFRENNEDVLHAPYLANQGWYDITKAFDGKDNLLCGAATAGNMLHWWFDQNKEEIERYLKKHPEKQKIIFNNQELFDVKAAIDTKDSQTNSKLFNYFRDKAFPNLSARQLGVMPDLVLDMFINGYYLNLGKTQSTDVNRPYQDKDKRGGIFDAVFTRGDQTTLLTARHDLKNKGLNEISDLIKQELTEGKALALSHTYANVSINHVINLWGADFDAEGNLEAIYVTDSDANASIGMKKYFVGRNAHGKVAISAKKIEGDNIGAQVLGLFTLSLGQDIWQKLS . 766 ng/µL
